The reported measurements were obtained from patent US20190111149A1.

system: MBI_CD19_2; (MOR208)
Sequence (chain, as listed by the source, chain 1 of 2): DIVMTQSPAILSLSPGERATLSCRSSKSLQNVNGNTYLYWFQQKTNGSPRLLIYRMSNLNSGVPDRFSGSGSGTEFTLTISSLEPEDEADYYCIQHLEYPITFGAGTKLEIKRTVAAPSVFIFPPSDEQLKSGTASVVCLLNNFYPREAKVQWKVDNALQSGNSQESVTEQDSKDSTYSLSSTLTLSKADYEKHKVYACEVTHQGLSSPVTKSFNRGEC
Sequence (chain, as listed by the source, chain 2 of 2): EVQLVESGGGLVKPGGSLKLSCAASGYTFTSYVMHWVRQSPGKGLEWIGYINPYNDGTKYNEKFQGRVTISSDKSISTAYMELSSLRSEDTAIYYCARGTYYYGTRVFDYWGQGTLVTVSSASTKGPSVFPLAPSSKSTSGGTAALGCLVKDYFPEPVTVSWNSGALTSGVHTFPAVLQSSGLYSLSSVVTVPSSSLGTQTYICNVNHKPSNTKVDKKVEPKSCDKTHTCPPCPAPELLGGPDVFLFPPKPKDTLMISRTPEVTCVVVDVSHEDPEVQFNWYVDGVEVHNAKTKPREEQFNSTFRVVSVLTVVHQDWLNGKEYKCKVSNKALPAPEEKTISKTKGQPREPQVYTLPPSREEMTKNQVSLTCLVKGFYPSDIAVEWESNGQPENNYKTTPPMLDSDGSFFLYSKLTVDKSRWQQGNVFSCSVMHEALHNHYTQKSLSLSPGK
experiment notes: BLI Octet, antibody on anti-human Fc tip, peptide 37 nM
pKd: −log10 of the molar value.
measured metric: pKd

binder: CQFDLSTRRLRC (modifications not checked) [Peptide 22: DM1 conjugated cQFD (cQFD-DM1)]
measured metric: pKd
reported: > 12.00
